TARGET OR TEST SYSTEM: full-length recombinant rat vitamin D receptor (Rattus norvegicus)
Construct: Full-length recombinant rat receptor was expressed in E. coli; histidine tag (C)
Sequence (P13053 whole entry): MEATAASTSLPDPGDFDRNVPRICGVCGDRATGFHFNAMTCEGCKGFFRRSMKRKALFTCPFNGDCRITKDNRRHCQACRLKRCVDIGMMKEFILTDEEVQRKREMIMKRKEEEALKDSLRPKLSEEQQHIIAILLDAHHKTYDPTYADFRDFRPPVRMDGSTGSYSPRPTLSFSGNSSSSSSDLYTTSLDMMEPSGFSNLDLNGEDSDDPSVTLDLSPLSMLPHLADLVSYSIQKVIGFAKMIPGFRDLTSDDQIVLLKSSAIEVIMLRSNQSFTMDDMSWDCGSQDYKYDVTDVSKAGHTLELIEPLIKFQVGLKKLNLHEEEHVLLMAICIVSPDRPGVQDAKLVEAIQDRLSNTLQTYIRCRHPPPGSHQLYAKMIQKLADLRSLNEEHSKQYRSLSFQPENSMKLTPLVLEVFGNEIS
PROTOCOL DETAILS: Vitamin D receptor competitive binding with [3H]-1,25(OH)2D3
SETUP CONDITIONS: full-length recombinant rat VDR; FIG. 1; read-out: Ki, competition with [3H]-1,25(OH)2D3 for binding to vitamin D receptor
Source text: Full-length recombinant rat receptor was expressed in E. coli BL21 (DE3) Codon Plus RIL cells and purified to homogeneity using two different column chromatography systems. The first system was a nickel affinity resin that utilizes the C-terminal histidine tag on this protein. The protein that was eluted from this resin was further purified using ion exchange chromatography (S-Sepharose Fast Flow). […]
ASSAY ENDPOINT: Ki (nM)
Answers are plain numbers, in nM.

In plain terms, C=C1[C@H](O)CC(=C/C=C2\CCC[C@@]3(C)C2CCC3[C@@H](C)CCCC)C[C@H]1O (stereo partly shown) has a documented Ki of 0.077

Cited source: patent US7713952B2
